biological target: D(1A) dopamine receptor (Homo sapiens); assay: D1 receptor positive allosteric modulators, retest, confirmation, cell-based, HEK293 D1, CRE-luciferase, duplicate (AID 642); details: dopamine EC30 potentiation, at 10 µM, stronger effect = higher value
About 2,000 (91%) of roughly 2,200 compounds were called active. So high a share suggests a set chosen from earlier hits. Only a sample is shown.
REPORTED_PROPERTY: luminescence
Lab note: jot down the number only; don't add units.

Req: What does the data say about its luminescence? Entry: `C/C(Cl)=C\Cn1c(Nc2cccc(C)c2)nc2c1c(=O)n(C)c(=O)n2C`
Resp: 12000

====

target: D(1A) dopamine receptor (Homo sapiens); assay: D1 receptor positive allosteric modulators, retest, confirmation, cell-based, HEK293 D1, CRE-luciferase, duplicate (AID 642); conditions: dopamine EC30 potentiation, at 10 µM
Screen size: about 2,200 compounds; about 2,000 (91%) were called active.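 The calls were made as follows: active = luminescence in either of two replicates above the same-plate mean plus 3 SD of the low-dose dopamine control; inactive = the rest.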 So high a share suggests a set chosen from earlier hits. These entries were drawn from the full list.
Response enum: YES for active, NO for inactive

Solved cases (2 shown):
| LINE_NOTATION | LABEL_VALUE |
| --- | --- |
| CCOc1ccc(Cn2c(SCCCCC#N)nc3c2c(=O)n(C)c(=O)n3C)cc1OCC | YES |
| COc1ccc(-n2c(Cc3cccn3C)nnc2SCC(=O)Nc2cc(C)cc(C)c2)cc1 | NO |

Req: # lookup: test call for `CCOC(=O)c1c(NC(=O)CSc2nnc(CN3CCOCC3)n2C)sc2c1CCCC2`
Resp: YES

Req: # lookup: test call for `COc1ccc(-c2nnc(SCC(=O)NC3CCCCC3)o2)cc1OC`
Resp: YES

Req: # lookup: test call for `COc1ccc(-c2nnn(Cc3nc(N)nc(N4CCCCC4)n3)n2)cc1`
Resp: YES

Req: # lookup: test call for `CCCc1nc(-c2ccccc2O)n(-c2ccccc2)n1`
Resp: YES

====

molecular target: D(1A) dopamine receptor (Homo sapiens) (UniProt P21728); assay: D1 receptor positive allosteric modulators, retest, confirmation, cell-based, HEK293 D1, CRE-luciferase, duplicate (AID 642); settings: dopamine EC30 potentiation, at 10 µM, stronger effect = higher value
Sequence (P21728 whole entry, looked up): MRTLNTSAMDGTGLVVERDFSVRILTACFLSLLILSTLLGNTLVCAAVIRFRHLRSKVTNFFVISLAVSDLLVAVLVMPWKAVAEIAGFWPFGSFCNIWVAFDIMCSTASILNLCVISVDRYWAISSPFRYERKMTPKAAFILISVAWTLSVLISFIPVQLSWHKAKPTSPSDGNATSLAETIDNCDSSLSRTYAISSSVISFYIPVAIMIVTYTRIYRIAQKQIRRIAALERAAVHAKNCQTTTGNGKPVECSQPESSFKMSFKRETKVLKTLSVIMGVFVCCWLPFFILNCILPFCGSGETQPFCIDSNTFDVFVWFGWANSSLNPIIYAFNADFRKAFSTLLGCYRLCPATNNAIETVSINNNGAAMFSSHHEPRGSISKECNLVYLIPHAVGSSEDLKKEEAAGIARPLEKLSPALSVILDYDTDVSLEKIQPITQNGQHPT
About 2,000 (91%) of roughly 2,200 compounds were called active. So high a share suggests a set chosen from earlier hits. These entries were drawn from the full list.
REPORTED_PROPERTY: luminescence

| MOLECULE | ASSAY_SYSTEM | luminescence |
| --- | --- | --- |
| CCOc1ccc2c(c1)cc(CN(C(=O)CC)C1CCCCC1)c1nnnn12 | D(1A) dopamine receptor (Homo sapiens) (UniProt P21728) | 16400 (active) |
| Cc1ccc(C2CC(c3cccc(C)c3)n3nc(N)nc3N2)cc1 (stereo not given) | D(1A) dopamine receptor (Homo sapiens) (UniProt P21728) | 8720 (active) |
| CCC(=O)NC(=Nc1nc2ccccc2s1)NC(=O)CC | D(1A) dopamine receptor (Homo sapiens) (UniProt P21728) | 18700 (active) |
| CC(C)n1c(C(O)c2ccccc2)nc2ccccc21 (stereo not given) | D(1A) dopamine receptor (Homo sapiens) (UniProt P21728) | 6650 (active) |

Req: What does the data say about its luminescence? Entry: Cn1c(=O)c2[nH]c(NCC3CCCO3)nc2n(-c2ccccc2)c1=O (stereo not given)
Resp: 8480 (active)

Req: What does the data say about its luminescence? Entry: Cc1ccc(C2CC(c3cccc(Br)c3)n3nc(N)nc3N2)cc1 (stereo not given)
Resp: 10800 (active)

Req: What does the data say about its luminescence? Entry: `COc1ccc(S(=O)(=O)N(C)CC(=O)Nc2ccc3c(c2)OCCO3)cc1OC`
Resp: 7550 (active)

Req: What does the data say about its luminescence? Entry: CCOc1ccc2[nH]c(=O)c(C(c3nnnn3CCOC)N3CCOCC3)cc2c1 (stereo not given)
Resp: 5420 (inactive)

Req: What does the data say about its luminescence? Entry: `COc1cc(NC(=O)N2CCOCC2)cc(OC)c1`
Resp: 7060 (inactive)

Req: What does the data say about its luminescence? Entry: COC(=O)C(C)C1Sc2ccccc2NC1=O (stereo not given)
Resp: 11200 (active)

Req: What does the data say about its luminescence? Entry: `COc1ncnc2c1N=C1CC(C)(C)CC(N)=C1S2`
Resp: 8600 (active)

Req: What does the data say about its luminescence? Entry: `COc1ccc(S(=O)(=O)Nc2ccc(S(=O)(=O)N3CCCCC3)cc2)cc1OC`
Resp: 13000 (active)

Req: What does the data say about its luminescence? Entry: `COc1ccc(-c2cc(C(F)(F)F)nc(S(C)(=O)=O)n2)cc1OC`
Resp: 10100 (active)

Req: What does the data say about its luminescence? Entry: `Cn1c(/C(C#N)=C2/CCCCCN2)nc2ccccc21`
Resp: 15000 (active)

Req: What does the data say about its luminescence? Entry: `N#Cc1c(N)sc2c1CCN(C(=O)OCc1ccccc1)C2`
Resp: 11700 (active)

Req: What does the data say about its luminescence? Entry: `CCSc1ncnc2c(C#N)c3n(c12)CCCCC3`
Resp: 18600 (active)

Req: What does the data say about its luminescence? Entry: `O/N=C(\c1ccc2c(c1)OCCO2)C1CCCCC1`
Resp: 10600 (active)

====

# luminescence per entry
target: D(1A) dopamine receptor (Homo sapiens); assay: D1 receptor positive allosteric modulators, retest, confirmation, cell-based, HEK293 D1, CRE-luciferase, duplicate (AID 642); details: dopamine EC30 potentiation, at 10 µM, stronger effect = higher value
Hit rate of the full screen: of about 2,200 compounds, about 2,000 (91%) were called active. So high a share suggests a set chosen from earlier hits. The list is a sample of the results.
Lab note: jot down the number only; don't add units.

Example compounds with recorded luminescence:
| COMPOUND | ASSAY_SYSTEM | luminescence |
| --- | --- | --- |
| Cc1ccc(S(=O)(=O)c2c(N)n(C)c3nc4ccccc4nc23)cc1 | D(1A) dopamine receptor (Homo sapiens) | 11800 |
| COc1ncnc2sc3c(c12)CCCC3 | D(1A) dopamine receptor (Homo sapiens) | 9980 |
| CCc1cc(=O)oc2cc(OCC(=O)N3CCCc4ccccc43)ccc12 | D(1A) dopamine receptor (Homo sapiens) | 14000 |
| COc1ccc(NC(=O)C2CCCN(S(=O)(=O)c3cccc4cccnc34)C2)cc1OC (stereo unspecified) | D(1A) dopamine receptor (Homo sapiens) | 13800 |
| O=S(=O)(c1cccs1)N1CCc2ccccc2C1 | D(1A) dopamine receptor (Homo sapiens) | 12600 |

Req: What does the data say about its luminescence? Entry: `O=c1cc(-c2ccccc2)nc(N2CCCCC2)[nH]1`
Resp: 12700

Req: What does the data say about its luminescence? Entry: `CCOC(=O)c1cc2n(c1C)-c1ccccc1C2=O`
Resp: 9350

Req: What does the data say about its luminescence? Entry: `N#Cc1nc(N)nc(N(c2ccccc2)c2ccccc2)n1`
Resp: 13100

Req: What does the data say about its luminescence? Entry: `COc1ccc(CCNC(=O)CCn2c(=O)oc3ccccc32)cc1OC`
Resp: 12500

Req: What does the data say about its luminescence? Entry: `CN(C)c1nc(N)nc(CSc2nnnn2-c2cccc3ccccc23)n1`
Resp: 7470

Req: What does the data say about its luminescence? Entry: COc1ccc(CCN(C)C(=O)C2CCCN(Cc3ccc(OC)c(OC)c3)C2)cc1OC (stereo unspecified)
Resp: 7890

====

target: D(1A) dopamine receptor (Homo sapiens) (UniProt P21728); experiment: D1 receptor positive allosteric modulators, retest, confirmation, cell-based, HEK293 D1, CRE-luciferase, duplicate (AID 642); conditions: dopamine EC30 potentiation, at 10 µM, stronger effect = higher value
Out of some 2,200 compounds screened, about 2,000 (91%) were called active. So high a share suggests a set chosen from earlier hits. A selection follows.
# luminescence per entry
Lab note: jot down the number only; don't add units.

| LINE_NOTATION | luminescence |
| --- | --- |
| CC1(C)Cc2ccccc2-c2nc(CN3CCOCC3)[nH]c(=O)c21 | 19300 |
| COc1nc(NCc2ccc(Cl)cc2)nc(OC)n1 | 13700 |
| CC1CCN(c2nc3c(c(=O)[nH]c(=O)n3C)n2CCCc2ccccc2)CC1 | 14000 |

Req: What does the data say about its luminescence? Entry: `C#CCNc1nc(C(C)C)nc2c1nnn2Cc1ccccc1F`
Resp: 11700

Req: What does the data say about its luminescence? Entry: `O=C(NCc1ccccn1)c1ccc2nc(-c3ccco3)c(-c3ccco3)nc2c1`
Resp: 10400

====

biological target: D(1A) dopamine receptor (Homo sapiens); assay: D1 receptor positive allosteric modulators, retest, confirmation, cell-based, HEK293 D1, CRE-luciferase, duplicate (AID 642); conditions: dopamine EC30 potentiation, at 10 µM
Screen size: about 2,200 compounds; about 2,000 (91%) were called active.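 The calls were made as follows: active = luminescence in either of two replicates above the same-plate mean plus 3 SD of the low-dose dopamine control; inactive = the rest.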 So high a share suggests a set chosen from earlier hits. These entries were drawn from the full list.
Response enum: active, inactive

| LINE_NOTATION | LABEL_VALUE |
| --- | --- |
| COC(=O)[C@H](C(C)C)n1c(C)c(C(C)=O)c(C(C)=O)c1C | inactive |
| CCOc1cc(C(=O)N2CCc3cc(OC)c(OC)cc3C2)ccc1OC(F)F | active |
| Nc1ccc(S(=O)(=O)NC(=O)c2ccccc2)cc1 | inactive |
| CCOc1cccc(-n2nnnc2-c2ccc(OC)cc2)c1 | active |
| CCOC(=O)/C=c1\s/c(=C\c2ccccc2OC)c(=O)n1CC(=O)N1CCOCC1 | active |

Req: # lookup: test call for `CCCc1nc(N)nc2c1C(=O)CC(C)(C)C2`
Resp: active

Req: # lookup: test call for `CC(=O)Nc1cccc(Oc2cc(C#N)c(C#N)cc2N2CCOCC2)c1`
Resp: active

Req: # lookup: test call for `COc1ccc(-c2nnco2)cc1OC`
Resp: active
